Exercise: state measured % Activity/Kill for each of the compounds provided.
Tested on: adult Musca domestica, strain: Reichswald (OP, SP, carbamate resistant)
Test: Test with flies (Musca domestica) (Example H)
Type: in vivo
Conditions: Concentration 4 μg fly; reading time not given
The reply should contain only the number, in %.

Query O=C(Nc1ccc(Cl)cc1)N1CCC(n2cc(Cl)cn2)C(c2cccc(C(F)(F)F)c2)=N1 (centres unmarked) yields % Activity/Kill of 0

Query O=C(Nc1ccc(C(F)(F)F)cc1)N1CCC(n2cc(Cl)cn2)C(c2cccc(Cl)c2)=N1 (centres unmarked) yields % Activity/Kill of 0

Query O=C(Nc1ccc(OC(F)(F)F)cc1)N1CCC(n2cc(Cl)cn2)C(c2cccc(Cl)c2)=N1 (centres unmarked) yields % Activity/Kill of 0

Query O=C(Nc1ccc(OC(F)(F)F)cc1)N1CCC(n2cc(Cl)cn2)C(c2cccc(C(F)(F)F)c2)=N1 (centres unmarked) yields % Activity/Kill of 0

Query O=C(Nc1ccc(OC(F)(F)F)cc1)N1CCC(n2cc(Cl)cn2)C(c2cccc(F)c2)=N1 (centres unmarked) yields % Activity/Kill of 0
